# STUDY_SYSTEM: muscle-type nicotinic acetylcholine receptor (nAChR) (Torpedo marmorata, UniProt P02711+Q6S3H8+Q6S3H9+Q6S3I0)
# Construct: gene CHRNA1; native nAChR purified from electroplax, reconstituted in asolectin lipids and microtransplanted to Xenopus oocytes; with β, γ and δ subunits of the heteropentamer
# Sequence (P02711 25-461): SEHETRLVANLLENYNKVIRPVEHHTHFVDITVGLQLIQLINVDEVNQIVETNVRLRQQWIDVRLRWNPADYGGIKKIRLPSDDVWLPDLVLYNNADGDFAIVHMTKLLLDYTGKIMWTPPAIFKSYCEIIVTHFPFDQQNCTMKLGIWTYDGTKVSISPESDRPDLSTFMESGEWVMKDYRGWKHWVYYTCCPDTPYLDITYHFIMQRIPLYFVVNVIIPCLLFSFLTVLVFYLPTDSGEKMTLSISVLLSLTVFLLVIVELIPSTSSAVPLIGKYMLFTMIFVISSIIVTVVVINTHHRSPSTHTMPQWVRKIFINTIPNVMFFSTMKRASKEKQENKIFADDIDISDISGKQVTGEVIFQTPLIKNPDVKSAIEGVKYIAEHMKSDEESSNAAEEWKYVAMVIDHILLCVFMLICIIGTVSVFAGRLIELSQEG
# Sequence (Q6S3I0 25-493): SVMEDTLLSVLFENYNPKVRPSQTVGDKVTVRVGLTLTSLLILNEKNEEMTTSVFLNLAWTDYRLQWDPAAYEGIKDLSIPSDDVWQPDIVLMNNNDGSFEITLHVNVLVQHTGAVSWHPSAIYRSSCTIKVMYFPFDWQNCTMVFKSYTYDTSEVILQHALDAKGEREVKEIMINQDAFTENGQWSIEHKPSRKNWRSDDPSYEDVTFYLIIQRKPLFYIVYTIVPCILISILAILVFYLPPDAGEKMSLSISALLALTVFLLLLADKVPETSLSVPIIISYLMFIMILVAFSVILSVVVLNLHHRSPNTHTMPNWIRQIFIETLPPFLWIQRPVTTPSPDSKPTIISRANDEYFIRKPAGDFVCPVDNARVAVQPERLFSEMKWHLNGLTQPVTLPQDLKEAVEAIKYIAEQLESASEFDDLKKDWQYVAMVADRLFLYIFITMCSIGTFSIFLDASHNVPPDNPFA
# Sequence (Q6S3H9 18-505): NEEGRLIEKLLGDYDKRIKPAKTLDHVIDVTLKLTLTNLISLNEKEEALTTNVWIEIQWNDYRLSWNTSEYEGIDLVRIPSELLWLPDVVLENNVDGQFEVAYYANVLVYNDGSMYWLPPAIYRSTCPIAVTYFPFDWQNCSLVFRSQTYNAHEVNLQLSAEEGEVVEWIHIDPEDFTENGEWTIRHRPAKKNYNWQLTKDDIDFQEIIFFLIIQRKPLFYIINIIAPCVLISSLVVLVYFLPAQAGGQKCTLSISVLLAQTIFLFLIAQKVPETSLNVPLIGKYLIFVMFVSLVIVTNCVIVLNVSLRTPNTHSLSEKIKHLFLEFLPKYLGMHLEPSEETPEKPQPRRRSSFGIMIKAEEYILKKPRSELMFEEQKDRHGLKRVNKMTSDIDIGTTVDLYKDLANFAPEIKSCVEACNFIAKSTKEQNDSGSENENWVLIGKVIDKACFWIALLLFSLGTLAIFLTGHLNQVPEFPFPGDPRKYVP
# Sequence (Q6S3H8 22-522): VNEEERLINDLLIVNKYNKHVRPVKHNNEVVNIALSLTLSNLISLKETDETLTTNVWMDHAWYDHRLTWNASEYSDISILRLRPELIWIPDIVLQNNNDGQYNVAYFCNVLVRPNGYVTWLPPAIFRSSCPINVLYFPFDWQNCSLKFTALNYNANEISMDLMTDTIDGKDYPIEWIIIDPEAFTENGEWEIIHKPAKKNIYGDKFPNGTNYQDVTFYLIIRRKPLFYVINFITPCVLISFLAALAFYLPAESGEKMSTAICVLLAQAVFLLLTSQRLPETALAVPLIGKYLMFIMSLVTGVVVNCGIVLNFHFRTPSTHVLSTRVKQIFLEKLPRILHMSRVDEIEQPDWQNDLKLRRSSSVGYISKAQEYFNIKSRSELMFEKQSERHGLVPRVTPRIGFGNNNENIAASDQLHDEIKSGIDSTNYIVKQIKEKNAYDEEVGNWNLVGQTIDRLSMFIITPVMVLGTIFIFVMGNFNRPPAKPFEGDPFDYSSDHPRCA
# ASSAY_NOTES: two-electrode voltage clamp, ACh concentration-current curve (agonist)
# Type: cell-based
MEASUREMENT_TYPE: pEC50
// returns pEC50 (minus log10 of molar concentration), number only

Enquiry: Give reported pEC50 value for CC(=O)OCC[N+](C)(C)C [ACh, acetylcholine]
Return: 4.34

Measured values drawn from paper PMC4753328 for this set.
